Values were extracted from PubChem BioAssay (NCI).

tested on: HOP-92 NSCLC; experiment: NCI-60 one-dose screen, 48 h; settings: 10 µM
About 83,000 compounds went through this panel and 20% of them were active in at least one assay; those are over-represented in the sample as a whole. Calls of active or inactive are those of the source. How the source made its calls: active means growth percent below 10; inactive means the rest.
Result category, one only: active, inactive

Give the logged outcome of this assay for the following compound: NC(=O)C1CCCN(Cc2c[nH]c3ccccc23)C1 (stereo not given)
inactive

So what was the verdict on O=C1CC(c2cccc(-c3cccnc3)c2)=Nc2ccc(Br)cc2N1 in this test?
inactive

Entry CC(C)c1[nH]nc2c(NCc3ccc(-c4ccccn4)cc3)nc(SCCN(C)C)nc12 : call = ?
active

Could you please tell me the result logged for Oc1ccccc1-c1nnc(Cn2c(Cc3cccc4ccccc34)nc3ccccc32)o1 in this assay?
inactive

Please share the test call associated with COc1ccc(C2C=C(c3ccc(OC)c(OC)c3)N=C3SC=CN32)c(Br)c1 (stereo not given) .
inactive

====

system: UO-31 renal; assay: NCI-60 one-dose screen, 48 h (100 = growth as untreated, 0 = no growth, -100 = all killed); settings: 10 µM
About 83,000 compounds went through this panel and 20% of them were active in at least one assay; those are over-represented in the sample as a whole. Activity calls are given as the source filed them. Rule for the calls: active = growth percent below 10; inactive = the rest.
Assignment: determine reported growth for the given compounds.

Give me measured growth, please, for this compound: Cc1ccc(-n2c(-c3cc4c([nH]c5ccccc54)c(-c4cccc(O)c4)n3)n[nH]c2=S)cc1
30.9% (inactive)

Fill in growth for record CCCn1c(=O)c2c(nc(-c3cccc(OCCCCl)c3)n2C)n(CCC)c1=O
27.8% (inactive)

Read off the recorded growth for COc1ccc(-c2nnc(COc3ccc(NC(=O)Nc4ccccc4)cc3F)o2)cc1
68.9% (inactive)

Tell us which growth value is on record for NS(=O)(=O)c1ccc(N2N=C(c3ccc(-c4ccccc4)cc3)CC2c2ccc(Cl)cc2)cc1 (stereo not given)
72.1% (inactive)

Specify growth for CCc1nn2c(-c3ccccc3)c(-c3cc(OC)c(OC)c(OC)c3)nc2s1 and stop.
57.6% (inactive)

Write down growth measured for item CC(CNC(Cc1ccccc1)c1ccccc1)NC(Cc1ccccc1)c1ccccc1 (stereo not given)
37.6% (inactive)

For the compound CC(=O)Nc1ccc(Sc2ccc(NC(C)=O)cc2)cc1 , give its measured growth value.
81% (inactive)

Identify growth associated with the compound N#Cc1cnc2ccc(NCc3cnc[nH]3)cc2c1Nc1ccc(F)c(Cl)c1
51.5% (inactive)

# return recorded growth for entry Cc1ccc(C2C=C(c3ccc(Cl)cc3)N=C3SC=CN32)c(Br)c1 (stereo not given)
57.8% (inactive)

Give the reported value of growth for this record: O=C(NCc1cn(Cc2cccc(Oc3ccccc3)c2)nn1)c1cccnc1Nc1ccccc1
54.4% (inactive)

Return growth (reported value) for this compound: O=C(Nc1cccc(-c2nc3ccccc3[nH]2)c1)c1cccc(NC(=O)c2ccco2)c1
73.2% (inactive)

Output measured growth for this item: Cc1ccc(-n2nnc3c(sc4ccccc43)c2=O)cc1
9.98% (active)

Give a short answer stating reported growth for O=C(OCC1OC(n2cc(C(F)(F)F)c(=O)[nH]c2=O)CC1OC(=O)c1ccc([N+](=O)[O-])cc1)c1ccc([N+](=O)[O-])cc1 (stereo not given) .
50.3% (inactive)

Could you please provide reported growth for Cc1nc(N)sc1Sc1nc2ccc(Cl)cc2c(=O)n1-c1ccc(Oc2ccccc2)cc1 ? Thanks!
61.8% (inactive)

Name the recorded growth of the compound listed here: CC(=O)O[C@H]1CC[C@@]2(C)[C@@H](CC[C@@H]3[C@@H]2CC[C@]2(C)C=C(C=O)C[C@@H]32)C1
93% (inactive)

Using the record for CCOC(=O)Nc1ccc2c(c1)C(=O)N(CC)c1ccccc1O2 , state its measured growth.
53.7% (inactive)

Fill in reported growth for this entry: O=C(c1ccccc1)C(Nc1ccccc1)c1ccccc1 (stereo not given)
66.9% (inactive)

Give the reported growth for this compound. N#Cc1c(-c2ccccc2)nc(SCC(=O)N2CCOCC2)[nH]c1=O
71.9% (inactive)

Give a short answer stating reported growth for CC(C)CCN(CCCNc1c2c(nc3cc(Cl)ccc13)CCCC2)CCC(C)C .
27.2% (inactive)

Assign growth to the following record: Cc1nc2cc(-n3c(-c4ccc(F)cc4)nc4ccccc4c3=O)ccc2n1Cc1ccccc1
35.7% (inactive)

====

test system: UACC-257 melanoma; assay: NCI-60 one-dose screen, 48 h; conditions: 10 µM
About 83,000 compounds went through this panel and 20% of them were active in at least one assay; those are over-represented in the sample as a whole. Calls of active or inactive are those of the source. The calls were made as follows: active = growth percent below 10; inactive = the rest.
Hi there, use one of these labels in your reply, thanks! active, inactive

Query: recorded result category for CC(=O)O[C@H]1CC[C@@]2(C)[C@@H](CC[C@@H]3[C@@H]2CC[C@]2(C)C=C(C=O)C[C@@H]32)C1 in this test
inactive

Could you kindly confirm the outcome this assay logged for O=[N+]([O-])c1ccc(Br)o1 ?
inactive

What did the test return for Cc1cc(Nc2cccc(F)c2)nc(NCc2ccccc2)n1 ?
inactive

What classification did Clc1cc(Cl)c(OCCCCCCN2CCNCC2)c(Cl)c1 end up with in this test?
active

What call does the record list for CCOC(=O)c1ccc(NC(=O)Nc2nncs2)cc1 ?
inactive

Per the records of this test, what outcome belongs to CC1(C)CC(=O)c2c(nc3ccc(Cl)cc3c2-c2ccccc2)C1 ?
inactive

Entry C[C@@H]1C(=O)N(C[C@H](Cc2ccccc2)NC(=O)OCc2ccccc2)[C@]1(Cc1ccccc1)C(=O)OCc1ccccc1 : call = ?
inactive

How did this test come out for Cc1ccc(-n2c(-c3cc4c([nH]c5ccccc54)c(-c4cccc(O)c4)n3)n[nH]c2=S)cc1 ?
active

Give the logged outcome of this assay for the following molecule: N#CC1C=Cc2c(ccc3ccccc23)N1C(=O)c1ccccc1 (stereo unspecified)
inactive

In this assay, the call recorded for CCOC(=O)Nc1ccc2c(c1)C(=O)N(CC)c1ccccc1O2 was what?
inactive

Recorded test outcome, item Nc1nc2c(ncn2C2OC3COP(=O)(O)OC4C(COP(=O)(O)OC2C3O)OC(n2cnc3c(N)ncnc32)C4O)c(=O)[nH]1 (stereo unspecified)
inactive

Per the assay record, what outcome was assigned to N/C(=N\O)c1cn(C2OC(CO)C(O)C2O)c2ncnc(N)c12 (stereo unspecified) ?
active

Call for entry CC1(C)CC(OCCCC[P+](c2ccccc2)(c2ccccc2)c2ccccc2)CC(C)(C)N1O :
active

Per the records of this test, what outcome belongs to CCCCC(CC#N)(CCC)CCC ?
inactive

Per the assay record, what outcome was assigned to N#C/C(=C\N1C(=O)/C(=C/c2cccc([N+](=O)[O-])c2)SC1=S)c1nc2ccccc2s1 ?
inactive

What is the recorded call for this molecule in the test? OC(CNC1CCCC1)Cn1c2ccccc2c2ccccc21 (stereo unspecified)
active

// return assay outcome for COc1cc(CSc2nc3ccc(C)cc3c(=O)n2-c2ccccc2)cc(OC)c1OC
inactive

For CCN(Cc1ccccc1)C1CCN(Cc2cc(Br)ccc2O)CC1 , which call appears in the assay record?
inactive

Recorded test call requested for COc1ccc(-c2nc(NC(=O)CS(=O)(=O)c3ccc(F)cc3)sc2C)cc1
inactive

State the result this test recorded for COc1cccc(-c2nnc(COc3ccc(-c4nc5ccc(C)cc5[nH]4)cc3OC)o2)c1 .
inactive

Hi team, can someone confirm the assay call for CCCCCCN=C(N)CCCCCCCCCCC(N)=NCCCCCC ?
inactive

====

tested on: KM12 colon; experiment: NCI-60 one-dose screen, 48 h (100 = growth as untreated, 0 = no growth, -100 = all killed); details: 10 µM
This is part of a sample that, as a whole, favours compounds with a hit. Of some 83,000 tested, about 20% had one in any assay.
Checkbox rule: growth lower than 30% = fulfilled; growth not lower than 30% = not fulfilled.

Please state whether growth is below 30% for CC(C)C[C@H](NC(=O)CCn1ccc2ccccc2c1=O)B(O)O
not fulfilled

Is 30% strictly greater than the compound's reported growth? compound: O=C(Nc1cccc(Cl)c1)OCC(COC(=O)Nc1cccc(Cl)c1)(COC(=O)Nc1cccc(Cl)c1)[N+](=O)[O-]
fulfilled

Please determine if CCCCCCCCCCCC(c1ccccc1)N(C)C (stereo not given) is below 30% in terms of growth.
not fulfilled

Would you kindly verify if growth of COc1ccccc1CNCCCN1C(=O)c2ccc3c4c(ccc(c24)C1=O)C(=O)N(CCCNCCNCCCN)C3=O is strictly less than 30%?
fulfilled

Regarding CCOC(=O)c1c(C(F)(F)F)n([O-])c2ccc(OC)cc2[n+]1=O , kindly confirm whether its growth is beneath 30%.
not fulfilled

Please indicate whether the reported growth of O=C(Nc1cccc(-c2nc3ccccc3[nH]2)c1)c1cccc(NC(=O)c2ccco2)c1 is strictly below 30%.
not fulfilled

Report whether reported growth is lower than 30% (strictly) for Cc1cc(Nc2cccc(F)c2)nc(NCc2ccccc2)n1
fulfilled

Check if growth falls below 30% for COc1ccc(-c2nc(-c3ccccc3)c(-c3ccccc3)[nH]2)cc1OC1CCCC1 .
not fulfilled

Hi there! Is growth for CCCN(CCC)CCCNC(=O)c1cc2c(-c3ccc(OC)c(OC)c3)nn(C)c2s1 below 30%, do you know?
fulfilled

Would you kindly verify if growth of COCCOC(=O)NC(=O)Nc1ccc(C(=O)c2ccc(Cl)cc2)cc1 is strictly less than 30%?
fulfilled
